# experimentalTarget: human TLR7 (Homo sapiens, UniProt Q9NYK1)
# Construct: expressed in transfected cells; host or cells: HEK293 (HEK-Blue-7)
# Sequence (Q9NYK1 27-1049): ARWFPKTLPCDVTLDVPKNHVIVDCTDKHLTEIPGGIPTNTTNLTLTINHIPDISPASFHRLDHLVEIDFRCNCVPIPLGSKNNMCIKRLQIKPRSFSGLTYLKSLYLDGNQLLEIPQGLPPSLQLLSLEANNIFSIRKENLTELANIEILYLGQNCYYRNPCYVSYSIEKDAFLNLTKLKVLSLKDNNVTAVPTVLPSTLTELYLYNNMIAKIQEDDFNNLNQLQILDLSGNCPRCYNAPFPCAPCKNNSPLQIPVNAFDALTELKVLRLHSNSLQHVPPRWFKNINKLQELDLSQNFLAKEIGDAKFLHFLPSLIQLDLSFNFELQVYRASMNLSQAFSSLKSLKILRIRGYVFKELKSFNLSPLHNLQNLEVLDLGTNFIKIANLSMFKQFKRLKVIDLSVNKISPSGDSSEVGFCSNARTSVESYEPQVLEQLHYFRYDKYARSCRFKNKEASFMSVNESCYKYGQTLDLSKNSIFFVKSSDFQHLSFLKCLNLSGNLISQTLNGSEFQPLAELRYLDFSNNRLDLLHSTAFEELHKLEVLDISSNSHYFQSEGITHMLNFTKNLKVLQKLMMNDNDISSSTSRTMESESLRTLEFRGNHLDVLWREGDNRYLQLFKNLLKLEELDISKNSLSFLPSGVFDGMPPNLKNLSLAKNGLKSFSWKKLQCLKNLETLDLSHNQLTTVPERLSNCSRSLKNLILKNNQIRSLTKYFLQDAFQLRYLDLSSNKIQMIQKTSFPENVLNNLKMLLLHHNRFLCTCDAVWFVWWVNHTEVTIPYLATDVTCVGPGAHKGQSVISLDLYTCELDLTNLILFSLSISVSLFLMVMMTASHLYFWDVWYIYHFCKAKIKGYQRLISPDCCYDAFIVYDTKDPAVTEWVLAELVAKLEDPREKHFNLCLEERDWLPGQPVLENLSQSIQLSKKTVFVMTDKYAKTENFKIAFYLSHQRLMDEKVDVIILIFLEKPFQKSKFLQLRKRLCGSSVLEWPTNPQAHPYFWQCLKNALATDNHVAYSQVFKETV
# protocolText: Human TLR7 reporter gene assay (NF-κB induction), HEK-Blue-7 cells
# Assay type: cell-based
# reportedConditions: primary screen
observable: TLR7-specific agonistic activity EC50

compound | testValue
CCCCc1nc2c(N)nc(CCc3ccccc3)cc2n1Cc1ccccc1 [Compound 23j] | restored
CCCCc1nc2c(N)nc(Cc3ccccc3)cc2n1Cc1ccccc1 [Compound 23g] | restored

====

So I've got a bunch of compounds here, and I need their EC50 values.
# experimentalTarget: human TLR7 (Homo sapiens)
# Construct: expressed in transfected cells; host or cells: HEK293 (HEK-Blue-7)
# protocolText: Human TLR7 reporter gene assay (NF-κB induction), HEK-Blue-7 cells
# Type: cell-based
# reportedConditions: human TLR7-specific reporter gene assay; Inactive = no activity up to 500 μg/mL; read-out: hTLR7-agonistic Activity (EC50)
Reply with the number, then its unit.

compound | EC50
CCCCc1nc2c(N)nc(NCc3ccc(Cl)cc3)cc2n1Cc1ccccc1 [Compound 19j] | 640 nM
CCCCc1nc2c(N)nc(NCc3cccc(OC)c3)cc2n1Cc1ccccc1 [Compound 19h] | 610 nM
CCCCc1nc2c(N)nc(NCc3ccc(C(F)(F)F)cc3)cc2n1Cc1ccccc1 [Compound 19i] | 1040 nM
CCCCc1nc2c(N)nc(N)cc2n1Cc1ccccc1 [Compound 19a] | 1250 nM
CCCCc1nc2c(N)nc(CCc3ccccc3)cc2n1Cc1ccccc1 [Compound 23j] | 570 nM
CCCCCCCNc1cc2c(nc(CCCC)n2Cc2ccccc2)c(N)n1 [Compound 19c] | 760 nM

Would you mind listing EC50 for each of the following compounds?
1. CCCCc1nc2c(N)nc(NCc3ccccc3)cc2n1Cc1ccccc1 [Compound 19f]
2. CCCCc1nc2c(N)nc(Nc3ccccc3)cc2n1Cc1ccccc1 [Compound 19e]

Resp:
1: 210 nM; 2: 1720 nM

For the 3 compounds below, give their EC50 values.
1. CCCCc1nc2c(N)nc(Cc3ccc(C)cc3)cc2n1Cc1ccccc1 [Compound 23h]
2. CCCCNc1cc2c(nc(CCCC)n2Cc2ccccc2)c(N)n1 [Compound 19b]
3. CCCCc1nc2c(N)nc(Cc3ccccc3)cc2n1Cc1ccccc1 [Compound 23g]

Resp:
["1800 nM", "340 nM", "280 nM"]
